# Test system: MOLT-4 leukemia
# testDescription: NCI-60 one-dose screen, 48 h
# settings: 10 µM unless noted
Compounds without any hit were thinned out: in the full panel of roughly 83,000, 20% have a hit. Calls of active or inactive are those of the source. How the source made its calls: active means growth percent below 10; inactive means the rest.
Returns: one label drawn from active, inactive

Use these answered entries as a reference point.
Prompt line: Per the records of this test, what outcome belongs to "COc1cc(-c2nn(-c3ccc(NC(=O)Nc4cc(C(F)(F)F)cc(C(F)(F)F)c4)cc3)cc2-c2ccncc2)ccc1Cl" ?
Response line: active

Prompt line: Per the records of this test, what outcome belongs to "CCCCCCCCCCCCCCCCCCOP(=O)(O)O" ?
Response line: inactive

Prompt line: Per the records of this test, what outcome belongs to CC(=O)OCC1O[C@@H](OC(C)=O)[C@@H](NC(=O)NS(=O)(=O)c2ccccc2)C(OC(C)=O)[C@@H]1OC(C)=O (stereo partly specified) ?
Response line: inactive

Prompt line: Per the records of this test, what outcome belongs to "O=C1CCNC1" ?
Response line: inactive

Prompt line: Per the records of this test, what outcome belongs to "O=C(O)/C(Br)=C/c1c[nH]c2ccc(Br)cc12" ?
Response line: inactive

Prompt line: Per the records of this test, what outcome belongs to "COc1ccc(-c2nnc(SCC(=O)Nc3ccc(C(=O)/C=C/c4cc(OC)c(OC)c(OC)c4)cc3)n2-c2ccccc2)cc1OC" ?
Response line: inactive

Prompt line: Per the records of this test, what outcome belongs to "Cc1nc2c(nnn2-c2ccccc2)c2nc(-c3ccccc3)oc(=O)c12" ?
Response line: inactive

Prompt line: Per the records of this test, what outcome belongs to "O=C1OC(c2ccc(-c3ccccc3)cc2)=C/C1=C/c1c2ccccc2cc2ccccc12" ?
Response line: inactive

Prompt line: Per the records of this test, what outcome belongs to "CC(=O)Nc1ccc(C(=O)/C=C/c2ccc(N(C)C)cc2)cc1" ?
Response line: inactive

Prompt line: Per the records of this test, what outcome belongs to O=C(O)CS(=O)c1ccc(Cl)cc1 (stereo unspecified) ?
Response line: inactive

Further cases:
Prompt line: Per the records of this test, what outcome belongs to "CC1(C)NC(=S)NC1=O" ?
Response line: inactive

----------
# Tested on: HCC-2998 colon
# testDescription: NCI-60 one-dose screen, 48 h
# settings: 10 µM unless noted
The panel holds about 83,000 compounds, 20% with a hit somewhere; the sample as a whole holds those more often. Activity calls are given as the source filed them. Rule for the calls: active = growth percent below 10; inactive = the rest.
Returns: one label drawn from active, inactive

Use these answered entries as a reference point.
Prompt line: Per the records of this test, what outcome belongs to "COc1cc2ncnc(-n3ncc4cc(NC(=O)Nc5ccccc5)ccc43)c2cc1OC" ?
Response line: inactive

Prompt line: Per the records of this test, what outcome belongs to "Cc1ccc(C(=O)Nc2ccc(CN3CCN(C)CC3)c(C(F)(F)F)c2)cc1C#Cc1cnc(N)c2ccc(C#N)cc12" ?
Response line: inactive

Prompt line: Per the records of this test, what outcome belongs to "CC1=NN(c2cccc(Cl)c2)C(=O)/C1=C\c1cn(-c2nc(N3CCOCC3)nc(N3CCOCC3)n2)c2ccccc12" ?
Response line: inactive

Prompt line: Per the records of this test, what outcome belongs to "O=C(N/N=C/c1cc(Cl)ccc1O)C(=O)N/N=C/c1cc(Cl)ccc1O" ?
Response line: inactive

Prompt line: Per the records of this test, what outcome belongs to "CCOc1ccc2nc3ccc(Cl)cc3nc2c1" ?
Response line: inactive

Further cases:
Prompt line: Per the records of this test, what outcome belongs to CCC(C)C1NC(=O)C(CCCCN)NC(=O)C(CCCCN)NC(=O)C(CC(C)C)NC(=O)C(CCCCN)NC(=O)C(C(C)CC)NC(=O)C(C(C)C)NC(=O)C(C(C)CC)NC(=O)C(CCCCN)NC(=O)C(CCCCN)NC(=O)C(C)NC(=O)C(CCCCN)NC(=O)C(CC(C)C)NC1=O (stereo not given) ?
Response line: inactive

Prompt line: Per the records of this test, what outcome belongs to "COc1cc(-c2nn(-c3ccc(NC(=O)Nc4cc(C(F)(F)F)cc(C(F)(F)F)c4)cc3)cc2-c2ccncc2)ccc1Cl" ?
Response line: active

Prompt line: Per the records of this test, what outcome belongs to "COc1cc(OC)c(NC(=O)n2ncc3cc(Nc4ncnc5ccccc45)ccc32)cc1Cl" ?
Response line: inactive

----------
# Tested on: SN12C renal
# testDescription: NCI-60 one-dose screen, 48 h (100 = growth as untreated, 0 = no growth, -100 = all killed)
# settings: 10 µM unless noted
The panel holds about 83,000 compounds, 20% with a hit somewhere; the sample as a whole holds those more often.
endpointName: growth (%)
Express your answer in %, writing the number without its unit.

growth for "COc1cc(-c2nn(-c3ccc(NC(=O)Nc4ccc(Cl)c(C(F)(F)F)c4)cc3)cc2-c2ccncc2)ccc1Cl" is 26.2

growth for "O=C(/C=C/c1ccc(Br)cc1)c1ccccc1" is 91.6

growth for "Cc1ccc(OCCn2ccc(=O)n(CCOc3ccc(Cl)cc3C(=O)c3cc(C)cc(C)c3)c2=O)cc1" is 62

growth for "CCCOC(=O)c1c(C)n(C)c2scc[n+]12" is 92.4

growth for COc1ccc(/C=C2\CCCC3=C2N=C2SC=NN2C3c2ccc(OC)c(OC)c2)cc1OC (stereo not given) is 40.7

growth for CCCCCCCCc1ccc(OCCOCC[N+](C)(C)CC)cc1 (tested in a mixture with another compound) is 21.5

growth for "O=S(=O)(O)c1ccc2c(c1)Sc1cc(S(=O)(=O)O)ccc1O2" is 95.8

growth for "Clc1ccc(N/N=C(\c2ccccc2)c2ccccn2)nc1" is 15.7

Further cases:
growth for "COc1cc([C@@H]2c3cc4c(cc3[C@H](O)[C@H]3COC[C@@H]23)OCO4)cc(OC)c1OC" is 90.5

growth for "NNC(=O)CNc1ccc2ccccc2c1" is 104

----------
# System: OVCAR-4 ovarian
# testDescription: NCI-60 one-dose screen, 48 h (100 = growth as untreated, 0 = no growth, -100 = all killed)
# settings: 10 µM unless noted
About 83,000 compounds went through this panel and 20% of them were active in at least one assay; those are over-represented in the sample as a whole.
endpointName: growth (%)
Express your answer in %, writing the number without its unit.

Considering "CCCC(=O)NNc1[nH]c(-c2ccc(OC)cc2)cc1C(=O)OCC" , its growth with OVCAR-4 ovarian was recorded as 117

Considering "CCCNC(=O)Oc1ccc(/C(=C(/C)Cc2ccc(OC)cc2)c2ccc(OCCN3CCCC3)cc2)cc1" , its growth with OVCAR-4 ovarian was recorded as 61.5

Considering "CCS(=O)(=O)OCCO[C@H]1Cc2cc3ccc(=O)oc3cc2OC1(C)C" , its growth with OVCAR-4 ovarian was recorded as 106

Considering "Oc1ccccc1\C=N/N=C/C=C/c1ccccc1" , its growth with OVCAR-4 ovarian was recorded as 97.7

Considering "COCn1c(C(=O)OC)cc2oc(/C=C3/SC(=S)N(N)C3=O)cc21" , its growth with OVCAR-4 ovarian was recorded as 97.2

Considering "C#CCCCCCCC[C@@H]1OC(=O)[C@H]([C@@H](C)CC)NC(=O)[C@H]([C@@H](C)CC)NC(=O)CC(=O)[C@@H]1C" , its growth with OVCAR-4 ovarian was recorded as 97.6

Considering N#CC1=C(N2CCOCC2)NC2c3ccccc3Sc3ccccc3N2C1=N (stereo not drawn) , its growth with OVCAR-4 ovarian was recorded as 109

Considering CC([C@H]1CC=C2C3CCC4=C[C@@H](N(C)C)CC[C@]4(C)C3CC[C@@]21C)N(C)C (stereo partly drawn) , its growth with OVCAR-4 ovarian was recorded as 8.25

----------
# System: U251 CNS
# testDescription: NCI-60 one-dose screen, 48 h
# settings: 10 µM unless noted
# Procedure: Growth inhibition of the U251 human tumor cell line is measured as a screen for anti-cancer activity. Cells are grown in 96 well plates and exposed to the test compound for 48 hours. Compounds are tested at a single concentration, which is 10^-5 M for most compounds. The reported endpoint is percent growth (GI% or GIPRCNT), where numbers from 0 - 100% represent growth inhibition, and numbers from -100% - 0 represent cell death. For example, a value of 40 represents 60% growth inhibition. […]
Compounds without any hit were thinned out: in the full panel of roughly 83,000, 20% have a hit. The source made the active and inactive calls. The calls were made as follows: active = growth percent below 10; inactive = the rest.
Returns: one label drawn from Y (active), N (inactive)

Prompt line: Per the records of this test, what outcome belongs to "CCN(CC)CCNc1ncnc2c1cnn2-c1ccc(Cl)cc1" ?
Response line: N

Further cases:
Prompt line: Per the records of this test, what outcome belongs to "COc1ccc2c(c1)/C(=C1/S/C(=N/c3nnc(C)s3)NC1=O)C(=O)N2Cc1ccc(Br)cc1" ?
Response line: N

Prompt line: Per the records of this test, what outcome belongs to "COc1ccc(-c2nc(SCC(C)C)nc(Nc3ccc(C)cc3)c2C#N)cc1" ?
Response line: N

Prompt line: Per the records of this test, what outcome belongs to "Cc1ncc(C(=O)Nc2ccc(CN3CCN(C)CC3)c(C(F)(F)F)c2)cc1C#Cc1cnc(NC2CC2)c2ncccc12" ?
Response line: Y

Prompt line: Per the records of this test, what outcome belongs to "C[n+]1c2ccccc2c(Nc2ccc(NS(=O)(=O)CCCCN=C(N)N)cc2)c2ccc(N)cc21" ?
Response line: N

Prompt line: Per the records of this test, what outcome belongs to "COC(=O)c1ccc2[nH]c(O)c(C(=Nc3ccc(N(C)C(=O)CN4CCN(C)CC4)cc3)c3ccc([N+](=O)[O-])cc3)c2c1" ?
Response line: N

Prompt line: Per the records of this test, what outcome belongs to "C[C@]12C=CC(=O)C=C1[C@@H](F)C[C@@H]1[C@@H]2[C@@H](O)C[C@@]2(C)[C@H]1CC[C@]2(O)C(=O)CO" ?
Response line: N

Prompt line: Per the records of this test, what outcome belongs to "CC#Cc1nc(Nc2cc(C)[nH]n2)c2ccccc2n1" ?
Response line: Y
